# credit: patent US8399465B2

testedOn: recombinant human LTA4 hydrolase (rhLTA4H) (Homo sapiens, UniProt P09960)
Construct: made in house; host or cells: Spodoptera frugiperda (Sf-9) cells, baculovirus (pFastBac1)
measurementDescription: Recombinant human LTA4 hydrolase assay for LTA4 hydrolase inhibitor activity
Format: biochemical
conditionDescription: rhLTA4H, LTB4 by immunoassay; single determination or average of two or more; mark after value = form tested: ′ free base, ″ hydrochloride, ^ formate; read-out: IC50
pIC50: −log10 of the molar value.
Output YES for pIC50 not less than 7; output NO otherwise.

compound	classLabel
CC(=O)N1CC2CN(Cc3c[nH]c4cc(Oc5nc6ccccc6s5)ccc34)CC2C1 (centres unmarked)	YES
O=C1Cc2cc(F)ccc2N1Cc1coc2cc(Oc3nc4ncccc4s3)ccc12	YES
NC(=O)N1CC2CN(Cc3coc4cc(Oc5nc6ncccc6s5)ccc34)CC2C1 (centres unmarked)	YES
CN(C)Cc1coc2cc(Oc3nc4ncccc4s3)ccc12	YES
CC(=O)N[C@H]1C[C@H]2CC[C@@H](C1)N2Cc1cc2ccc(Oc3nc4cccnc4s3)cc2o1	NO
CS(=O)(=O)NC1CCN(Cc2coc3cc(Oc4nc5ccccc5s4)ccc23)CC1	YES

====

Each item that follows carries a reported IC50.
System: LTB4 production in murine blood (LTA4H)
measurementDescription: LTB4 production by calcium ionophore-stimulated murine blood for LTA4H inhibitor activity
Format: cell-based, CD-1 mice
conditionDescription: Mus musculus; murine blood diluted 1 in 15, A23187 stimulated; single determination or average; mark after value = form tested: ′ free base, ″ hydrochloride, ^ formate; read-out: IC50
Counter-ions that a name gives are not always drawn.

molecule	IC50 [nM]
c1cnc2nc(Oc3ccc4c(CN5CCN6CCCC6C5)coc4c3)sc2c1 (centres unmarked)	120
c1ccc2sc(Oc3ccc4cc(CN5CCCC5)[nH]c4c3)nc2c1	450
CC(=O)N[C@H]1C[C@H]2CC[C@@H](C1)N2Cc1cc2cc(Oc3nc4ncccc4s3)ccc2o1	77
Clc1ccc2sc3c(c2c1)CN(Cc1c[nH]c2cc(Oc4nc5ncccc5s4)ccc12)CC3 [Example 36, formate]	423
CC(=O)N1C[C@H]2CC[C@@H](C1)N2Cc1cc2ccc(Oc3nc4cnccc4s3)cc2o1	2700
CC(C)(C)C1CCN(Cc2coc3cc(Oc4nc5ncccc5s4)ccc23)CC1 [Example 302, formate]	78
CC(=O)N1[C@@H]2CC[C@H]1CN(Cc1coc3cc(Oc4nc5ncccc5s4)ccc13)C2	55
c1cnc2nc(Oc3ccc4c(CN5CCC(c6ccncc6)CC5)coc4c3)sc2c1	12

====

testedOn: recombinant human LTA4 hydrolase (rhLTA4H) (Homo sapiens)
Construct: made in house; host or cells: Spodoptera frugiperda (Sf-9) cells, baculovirus (pFastBac1)
Sequence (P09960 1-611): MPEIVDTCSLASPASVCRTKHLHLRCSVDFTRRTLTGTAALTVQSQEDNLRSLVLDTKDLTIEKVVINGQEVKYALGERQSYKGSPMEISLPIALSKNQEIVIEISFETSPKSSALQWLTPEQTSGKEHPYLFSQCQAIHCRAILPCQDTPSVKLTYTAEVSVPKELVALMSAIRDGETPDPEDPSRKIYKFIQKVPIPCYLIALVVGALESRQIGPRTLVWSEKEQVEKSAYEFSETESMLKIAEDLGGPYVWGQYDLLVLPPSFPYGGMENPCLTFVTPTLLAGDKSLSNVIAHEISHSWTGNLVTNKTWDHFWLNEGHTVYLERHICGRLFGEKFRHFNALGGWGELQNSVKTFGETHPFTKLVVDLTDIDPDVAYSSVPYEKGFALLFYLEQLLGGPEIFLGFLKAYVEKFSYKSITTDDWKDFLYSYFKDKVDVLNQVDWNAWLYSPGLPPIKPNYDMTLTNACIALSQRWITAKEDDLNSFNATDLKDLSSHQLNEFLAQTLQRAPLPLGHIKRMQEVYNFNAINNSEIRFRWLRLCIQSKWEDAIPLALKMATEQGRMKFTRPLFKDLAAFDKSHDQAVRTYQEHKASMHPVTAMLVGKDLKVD
measurementDescription: Recombinant human LTA4 hydrolase assay for LTA4 hydrolase inhibitor activity
Format: biochemical
conditionDescription: rhLTA4H, LTB4 by immunoassay; single determination or average of two or more; mark after value = form tested: ′ free base, ″ hydrochloride, ^ formate; read-out: IC50
Method: Assay 1: Recombinant Human LTA4 Hydrolase Assay for LTA4 Hydrolase Inhibitor Activity Compounds of the present invention were tested for LTA4 hydrolase inhibitor activity against recombinant human LTA4 hydrolase (rhLTA4H). Vectors were prepared and used to express rhLTA4H essentially as follows: LTA4 hydrolase encoding DNA was amplified by polymerase chain reaction (PCR) using a human placental cDNA library as a template. […]
pIC50: −log10 of the molar value. Where a name gives a salt, the structure may show the parent alone.
Output MET for pIC50 not less than 8; output NOT MET otherwise.

compound	classLabel
CC1CN(Cc2coc3cc(Oc4nc5ncccc5s4)ccc23)CC(C)O1 (stereo not shown)	NOT MET
O=C(Cc1ccc(Cl)cc1)NCc1coc2cc(Oc3nc4ncccc4s3)ccc12	NOT MET
CC(=O)NC1CCN(Cc2coc3cc(Oc4nc5ncccc5s4)ccc23)CC1 [Example 197, formate]	MET
CC1CC(C)CN(Cc2coc3cc(Oc4nc5ncccc5s4)ccc23)C1 (stereo not shown) [Example 281, formate]	NOT MET
c1ccc2sc(Oc3ccc4[nH]c(CN5CCCCC5)cc4c3)nc2c1	NOT MET
CC(=O)NCc1coc2cc(Oc3nc4ncccc4s3)ccc12	NOT MET
CC(=O)N1C[C@@H]2CC[C@H]1CN2Cc1cc2ccc(Oc3nc4ncccc4s3)cc2o1	MET
Fc1ccc2c(c1)CN(Cc1coc3cc(Oc4nc5ncccc5s4)ccc13)C2	NOT MET
CC(=O)N[C@H]1C[C@H]2CC[C@@H](C1)N2Cc1cc2cc(Oc3nc4ccccc4s3)ccc2o1	NOT MET
c1cnc2nc(Oc3ccc4oc(CN5CCCCC5)cc4c3)sc2c1	NOT MET
CS(=O)(=O)C1CCN(Cc2cc3cc(Oc4nc5ncccc5s4)ccc3o2)CC1	NOT MET
CC(C)N(C)C(=O)c1coc2cc(Oc3nc4ncccc4s3)ccc12	NOT MET
COC(=O)CC1CCN(Cc2c[nH]c3cc(Oc4nc5ccccc5s4)ccc23)CC1	NOT MET
CC(=O)NC1CCN(Cc2coc3cc(Oc4nc5ccccc5s4)ccc23)CC1	NOT MET
CC(=O)N1CCN(Cc2cc3cc(Oc4nc5ncccc5s4)ccc3o2)CC1 [Example 259, formate]	MET
c1ccc(N2CCN(Cc3coc4cc(Oc5nc6ncccc6s5)ccc34)CC2)cc1 [Example 287, formate]	NOT MET
CC(=O)N1C[C@H]2C[C@@H]1CN2Cc1cc2ccc(Oc3nc4ncccc4s3)cc2o1	NOT MET
CC(=O)NC1CCN(Cc2coc3cc(Oc4nc5nccc(C)c5s4)ccc23)CC1 [Example 252, formate]	NOT MET
c1ccc(OCCNCc2coc3cc(Oc4nc5ncccc5s4)ccc23)cc1 [Example 319, formate]	NOT MET
NC(=O)N1CC2CN(Cc3cc4cc(Oc5nc6ncccc6s5)ccc4o3)CC2C1 (stereo not shown)	NOT MET
c1cnc2nc(Oc3ccc4c(CN5CCSCC5)c[nH]c4c3)sc2c1	MET
c1cnc2nc(Oc3ccc4c(CN5CCC(c6ccncc6)CC5)coc4c3)sc2c1	MET
O=C(C1CC1)N1CCN(Cc2coc3cc(Oc4nc5ncccc5s4)ccc23)CC1 [Example 276, formate]	MET
CC(=O)N1CCCC2(CCN(Cc3cc4cc(Oc5nc6ncccc6s5)ccc4o3)C2)C1 (stereo not shown)	NOT MET
